- target: T1, human PD-L1 (hPD-L1) expressed on transfected 300.19 cells (human, UniProt Q9NZQ7 19-290)
- T1 construct: whole, on cells; also called B7H1
- T1 sequence (Q9NZQ7 19-290): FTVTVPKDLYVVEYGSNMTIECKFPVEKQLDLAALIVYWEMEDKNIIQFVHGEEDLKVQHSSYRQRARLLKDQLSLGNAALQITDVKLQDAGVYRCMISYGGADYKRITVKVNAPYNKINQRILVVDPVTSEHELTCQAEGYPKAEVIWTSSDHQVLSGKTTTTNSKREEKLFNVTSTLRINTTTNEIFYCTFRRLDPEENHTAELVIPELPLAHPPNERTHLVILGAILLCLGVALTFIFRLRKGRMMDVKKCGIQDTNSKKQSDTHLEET
- experimental-protocol: FACS, hPD-L1 300.19 cells, assay 1, Ab 0.1 ug/ml
Collected Cells PE-A Mean values appear next to each entry.
Write the quantity with the unit trailing the number.

Ab-42 (antibody, V domains shown, also called huPD-L1 Ab # 42; mAb42) VH: QVQLVQSGAEVKKPGSSVKVSCKASGGTFSSYAISWVRQAPGQGLEWMGGIIPIFGTANYAQKFQGRVTITADKSTSTAYMELSSLRSEDTAVYYCARGRQMFGAGIDFWGPGTLVTVSS VL: NFMLTQPHSVSESPGKTVTISCTRSSGSIDSNYVQWYQQRPGSAPTTVIYEDNQRPSGVPDRFSGSIDSSSNSASLTISGLKTEDEADYYCQSYDSNNRHVIFGGGTKLTVL
14900 MFI
Ab-14 (antibody, V domains shown, also called huPD-L1 Ab # 14) VH: QVQLVQSGAEVKKPGASVKVSCKASGYTFTSYGISWVRQAPGQGLEWMGWISAYNGNTNYAQKLQGRVTMTTDTSTSTAYMELRSLRSDDTAVYYCARALPSGTILVGGWFDPWGQGTLVTVSS VL: NFMLTQPHSVSESPGKTVTISCTRSSGNIASNYVQWYQQRPGSAPTTVIYEDNQRPSGVPDRFSGSIDSSSNSASLTISGLKTEDEADYYCQSYDSSNLWVFGGGTKLTVL
8100 MFI

Consider now this further binder.
Query :: Which Cells PE-A Mean is reported for this binder? Ab-31 (antibody, V domains shown, also called huPD-L1 Ab # 31) VH: QVQLVQSGAEVKKPGATVKVSCKVFGDTFRGLYIHWVRQAPGQGLEWMGGIIPIFGTANYAQKFQGRVTITTDESTSTAYMELSSLRSEDTAVYYCASGLRWGIWGWFDPWGQGTLVTVSS VL: EIVLTQSPATLSLSPGERATLSCRASQSIGNSLAWYQQKPGQAPRLLMYGASSRATGIPDRFSGSGAGTDFTLTISSLEPEDFATYYCQQHTIPTFSFGPGTKVEVK
Result :: 12500 MFI
